- Tested on: UGT enzymes of human liver microsomes
- Assay Explanation: Inhibition of estradiol (E2) glucuronidation in human liver microsomes
- Assay type: biochemical
- Particulars: liver 062101; E2 50 μM; inhibitor 50 μM
- Excerpt: Compounds were eluted using a binary solvent gradient system where solvent A was dilute phosphoric acid (pH 3) and solvent B was 80:20 acetonitrile-methanol. […] Detection was at 280 nm.
Metric: residual metabolism (% of control), E2-3-β-D-glucuronide

O=C(O[C@@H]1Cc2c(O)cc(O)cc2O[C@H]1c1cc(O)c(O)c(O)c1)c1cc(O)c(O)c(O)c1 [Gallocatechin gallate] : 33 (2) %
O=C(O[C@@H]1Cc2c(O)cc(O)cc2O[C@@H]1c1cc(O)c(O)c(O)c1)c1cc(O)c(O)c(O)c1 [Epigallocatechin gallate] : 45 (2) %
O=C(O[C@@H]1Cc2c(O)cc(O)cc2O[C@@H]1c1ccc(O)c(O)c1)c1cc(O)c(O)c(O)c1 [Epicatechin gallate] : 34 (1) %
O=c1c(O)c(-c2ccc(O)c(O)c2)oc2cc(O)cc(O)c12 : 30 (1) %

====

- Target System: UGT enzymes of human liver microsomes
- Construct: percentage of control metabolism, 7-HFC glucuronidation; percentage of control metabolism, 7-HFC glucuronidation
- Assay Explanation: Inhibition of 7-HFC glucuronidation in human liver microsomes
- Particulars: 7-HFC 50 μM, 1 mM UDPGA, 15 min
pIC50: −log10 of the molar value.
# pIC50 annotations
Metric: pIC50

CCCCCCCCCCCCCCCC(=O)OC[C@H](O)[C@H]1OC(=O)C(O)=C1O [Ascorbyl palmitate] : 3.70
O=C(OC[C@H]1O[C@@H](OC(=O)c2cc(O)c(O)c(OC(=O)c3cc(O)c(O)c(O)c3)c2)[C@H](OC(=O)c2cc(O)c(O)c(OC(=O)c3cc(O)c(O)c(O)c3)c2)[C@@H](OC(=O)c2cc(O)c(O)c(OC(=O)c3cc(O)c(O)c(O)c3)c2)[C@@H]1OC(=O)c1cc(O)c(O)c(OC(=O)c2cc(O)c(O)c(O)c2)c1)c1cc(O)c(O)c(OC(=O)c2cc(O)c(O)c(O)c2)c1 : 5.00

====

- Target System: UGT1A3 (Homo sapiens)
- Sequence (P35503 29-534): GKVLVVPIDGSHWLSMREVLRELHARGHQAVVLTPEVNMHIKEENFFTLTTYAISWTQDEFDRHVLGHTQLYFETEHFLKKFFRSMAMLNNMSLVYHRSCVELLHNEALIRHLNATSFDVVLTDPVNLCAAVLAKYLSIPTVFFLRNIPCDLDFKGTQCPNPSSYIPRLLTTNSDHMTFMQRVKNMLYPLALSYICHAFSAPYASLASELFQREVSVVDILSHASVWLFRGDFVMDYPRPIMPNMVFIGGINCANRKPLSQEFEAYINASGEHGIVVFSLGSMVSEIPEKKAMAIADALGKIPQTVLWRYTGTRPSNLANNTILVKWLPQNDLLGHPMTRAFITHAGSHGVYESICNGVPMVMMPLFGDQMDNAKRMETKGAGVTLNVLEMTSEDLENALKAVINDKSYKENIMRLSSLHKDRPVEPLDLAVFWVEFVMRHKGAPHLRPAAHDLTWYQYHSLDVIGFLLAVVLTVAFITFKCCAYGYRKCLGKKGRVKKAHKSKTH
- Assay Explanation: in vitro
- Particulars: pH 7.5, % of control metabolism, raloxifene G1
Metric: activity at 15 min, 25 µM (%)

COc1cc(C2Oc3cc([C@H]4Oc5cc(O)cc(O)c5C(=O)[C@@H]4O)ccc3OC2CO)ccc1O (stereo partly shown) : 59

====

- Target System: UniProtKB O60656
- Sequence (O60656 26-530): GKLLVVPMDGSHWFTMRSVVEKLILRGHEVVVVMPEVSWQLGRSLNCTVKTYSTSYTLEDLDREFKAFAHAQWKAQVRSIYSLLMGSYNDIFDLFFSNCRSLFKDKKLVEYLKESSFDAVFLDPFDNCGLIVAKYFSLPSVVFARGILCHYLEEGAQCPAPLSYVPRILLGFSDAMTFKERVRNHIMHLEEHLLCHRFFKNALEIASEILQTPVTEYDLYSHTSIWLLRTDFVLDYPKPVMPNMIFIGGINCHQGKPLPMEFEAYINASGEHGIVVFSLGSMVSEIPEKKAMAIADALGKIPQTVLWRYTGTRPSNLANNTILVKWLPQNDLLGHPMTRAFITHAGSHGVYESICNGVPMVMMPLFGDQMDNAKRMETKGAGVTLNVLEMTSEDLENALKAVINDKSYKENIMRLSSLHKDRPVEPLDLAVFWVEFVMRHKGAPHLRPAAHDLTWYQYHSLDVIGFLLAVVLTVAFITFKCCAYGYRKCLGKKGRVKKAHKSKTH
- Assay Explanation: in vitro
- Particulars: pH 7.5, Inhibition of raloxifene glucuronidation, UGT1A9, second line per inhibitor (G2)
Metric: activity at 15 min, 50 µM (%)

C=CCc1ccc(O)c(OC)c1 : 29

====

- Target System: UGT enzymes of human liver microsomes
- Construct: percentage of control metabolism, 7-HFC glucuronidation; percentage of control metabolism, 7-HFC glucuronidation
- Assay Explanation: Inhibition of 7-HFC glucuronidation in human liver microsomes
- Particulars: 7-HFC 50 μM, 1 mM UDPGA, 15 min
Metric: IC50 (µM)

O=C(O[C@@H]1Cc2c(O)cc(O)cc2O[C@H]1c1cc(O)c(O)c(O)c1)c1cc(O)c(O)c(O)c1 [Gallocatechin gallate] : 100
CCCCCCCCCCCCOC(=O)c1cc(O)c(O)c(O)c1 [Lauryl gallate] : 100

====

- Target System: UGT1A1 (Homo sapiens, UniProt P22309)
- Sequence (P22309 26-533): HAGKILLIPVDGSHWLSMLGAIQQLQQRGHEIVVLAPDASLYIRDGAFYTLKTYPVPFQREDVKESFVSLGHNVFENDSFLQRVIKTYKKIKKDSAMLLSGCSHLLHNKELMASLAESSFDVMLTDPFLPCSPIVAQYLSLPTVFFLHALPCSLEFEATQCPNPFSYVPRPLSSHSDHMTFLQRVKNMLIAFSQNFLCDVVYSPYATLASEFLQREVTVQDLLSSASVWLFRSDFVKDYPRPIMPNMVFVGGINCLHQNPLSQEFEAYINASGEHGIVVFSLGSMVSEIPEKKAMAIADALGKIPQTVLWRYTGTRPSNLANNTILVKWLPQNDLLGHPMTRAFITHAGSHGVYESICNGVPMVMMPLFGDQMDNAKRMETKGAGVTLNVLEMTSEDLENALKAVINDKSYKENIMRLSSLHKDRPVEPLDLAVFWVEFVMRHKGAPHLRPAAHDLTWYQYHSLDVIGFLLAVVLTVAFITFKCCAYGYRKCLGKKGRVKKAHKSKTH
- Assay Explanation: Inhibition of raloxifene glucuronidation by recombinant UGT1A1 Supersomes
- Particulars: human, Supersomes with recombinant human UGT1A1, pH 7.5, probe raloxifene 50 μM, formation of glucuronide G2, % of control metabolism, raloxifene G2, UGT1A1; inhibitor 25 μM
The reader will find reported activity at 15 min, 25 µM values listed item by item below.
Metric: activity at 15 min, 25 µM (%)

CCCCCCCCOC(=O)c1cc(O)c(O)c(O)c1 [Octyl gallate] : 51
O=C(O[C@@H]1Cc2c(O)cc(O)cc2O[C@H]1c1cc(O)c(O)c(O)c1)c1cc(O)c(O)c(O)c1 [Gallocatechin gallate] : 54
O=C(OC[C@H]1O[C@@H](OC(=O)c2cc(O)c(O)c(OC(=O)c3cc(O)c(O)c(O)c3)c2)[C@H](OC(=O)c2cc(O)c(O)c(OC(=O)c3cc(O)c(O)c(O)c3)c2)[C@@H](OC(=O)c2cc(O)c(O)c(OC(=O)c3cc(O)c(O)c(O)c3)c2)[C@@H]1OC(=O)c1cc(O)c(O)c(OC(=O)c2cc(O)c(O)c(O)c2)c1)c1cc(O)c(O)c(OC(=O)c2cc(O)c(O)c(O)c2)c1 : 8
CC/C(=C(/CC)c1ccc(O)cc1)c1ccc(O)cc1 [Diethylstilbestrol, reference compound] : 41

====

- System: UGT enzymes of human liver microsomes
- Construct: percentage of control metabolism, 7-HFC glucuronidation; percentage of control metabolism, 7-HFC glucuronidation
- Assay Explanation: Inhibition of 7-HFC glucuronidation in human liver microsomes
- Format: biochemical
- Particulars: inhibitor 500 μM; 7-HFC 50 μM, human liver microsomes 100 μg/ml, 15 min
Metric: % of control metabolism (SD, n = 3), 7-HFC glucuronidation

COc1ccc2cc([C@H](C)C(=O)[O-])ccc2c1.[Na+] [Naproxen Na salt] : 82 (1) %
Oc1cc(O)c2c(c1)O[C@H](c1cc(O)c(O)c(O)c1)[C@H](O)C2 [Epigallocatechin] : 81 (4) %
O=C(O[C@@H]1Cc2c(O)cc(O)cc2O[C@@H]1c1cc(O)c(O)c(O)c1)c1cc(O)c(O)c(O)c1 [Epigallocatechin gallate] : 5 (1) %
CC(=O)OC/C=C(C)/C=C/C=C(C)/C=C/C1=C(C)CCCC1(C)C [Retinyl acetate] : 48 (1) %
CN(C)CCC=C1c2ccccc2CCc2ccccc21 [Amitriptyline, reference compound] : 94 (1) %
CC(C)[C@@H]1CC[C@@H](C)C[C@H]1O[C@@H]1O[C@H](C(=O)O)[C@@H](O)[C@H](O)[C@H]1O [Menthol glucuronide] : 94 (4) %
CCCCCCCCCCCCOC(=O)c1cc(O)c(O)c(O)c1 [Lauryl gallate] : 18 (6) %
C[C@]12CC[C@@H]3c4ccc(O)cc4CC[C@H]3[C@@H]1CC[C@@H]2O [E2, 17-β-estradiol, reference compound] : 80 (2) %

====

- Target System: UGT1A1 (Homo sapiens)
- Sequence (P22309 26-533): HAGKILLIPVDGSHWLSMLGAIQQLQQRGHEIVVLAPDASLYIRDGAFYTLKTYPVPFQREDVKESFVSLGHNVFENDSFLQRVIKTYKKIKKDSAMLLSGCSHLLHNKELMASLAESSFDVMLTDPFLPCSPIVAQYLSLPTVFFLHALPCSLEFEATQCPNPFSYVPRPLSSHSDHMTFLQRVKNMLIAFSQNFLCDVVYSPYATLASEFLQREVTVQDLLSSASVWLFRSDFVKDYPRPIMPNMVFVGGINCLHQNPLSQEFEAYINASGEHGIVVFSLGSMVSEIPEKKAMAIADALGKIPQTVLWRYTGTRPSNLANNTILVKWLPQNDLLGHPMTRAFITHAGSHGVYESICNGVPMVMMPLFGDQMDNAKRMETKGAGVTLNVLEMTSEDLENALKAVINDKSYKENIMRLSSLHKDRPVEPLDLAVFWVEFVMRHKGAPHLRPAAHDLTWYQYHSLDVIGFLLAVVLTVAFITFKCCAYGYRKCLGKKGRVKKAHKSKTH
- Assay Explanation: Inhibition of raloxifene glucuronidation by recombinant UGT1A1 Supersomes
- Particulars: human, Supersomes with recombinant human UGT1A1, pH 7.5, probe raloxifene 50 μM, formation of glucuronide G1
Measured activity at 15 min, listed per entry for reference.
Metric: activity at 15 min (%)

O=C(OC[C@H]1O[C@@H](OC(=O)c2cc(O)c(O)c(OC(=O)c3cc(O)c(O)c(O)c3)c2)[C@H](OC(=O)c2cc(O)c(O)c(OC(=O)c3cc(O)c(O)c(O)c3)c2)[C@@H](OC(=O)c2cc(O)c(O)c(OC(=O)c3cc(O)c(O)c(O)c3)c2)[C@@H]1OC(=O)c1cc(O)c(O)c(OC(=O)c2cc(O)c(O)c(O)c2)c1)c1cc(O)c(O)c(OC(=O)c2cc(O)c(O)c(O)c2)c1 : 17
CC/C(=C(/CC)c1ccc(O)cc1)c1ccc(O)cc1 [Diethylstilbestrol, reference compound] : 59
O=C(O[C@@H]1Cc2c(O)cc(O)cc2O[C@H]1c1cc(O)c(O)c(O)c1)c1cc(O)c(O)c(O)c1 [Gallocatechin gallate] : 79
CCCCCCCCOC(=O)c1cc(O)c(O)c(O)c1 [Octyl gallate] : 65
